The origin of these recorded values is the supplement of paper PMC9112550.

Test system: Escherichia coli TOP10;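 also: peptides expressed intracellularly from a pBAD plasmid library in pooled LB shake-flask culture, induced with 0.3% L-arabinose, DNA abundance read by NGS, three biological replicates, DESeq2 with apeglm shrinkage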
ASSAY_COMMENT: shrunken log2 fold change of peptide-encoding DNA abundance (4.5 h post-induction vs induction); higher = less antimicrobial activity (less host growth inhibition)
EXPERIMENTAL_CONDITIONS: time post-induction: 4.5 h; library: site-saturation at positions 5, 18, 19, 20
Label satisfied when shrunken log2 fold change >= 0.1; otherwise not satisfied.

{"PRIMARY_SEQUENCE": "RRIRLRPPRLPRPRPRPCAWPRP", "GROUP_LABEL": "not satisfied"}
{"PRIMARY_SEQUENCE": "RRIRSRPPRLPRPRPRPWDWPRP", "GROUP_LABEL": "satisfied"}
{"PRIMARY_SEQUENCE": "RRIRSRPPRLPRPRPRPYEQPRP", "GROUP_LABEL": "not satisfied"}

Query :: hey, is shrunken log2 fold change for this one >= 0.1? "RRIRARPPRLPRPRPRPHQVPRP"
Result :: not satisfied

Query :: Threshold query (shrunken log2 fold change >= 0.1) on "RRIRCRPPRLPRPRPRPKAPPRP"
Result :: satisfied

Query :: Has "RRIRVRPPRLPRPRPRPSHPPRP" a recorded shrunken log2 fold change greater than or equal to 0.1?
Result :: not satisfied
